# credit: the Deep4Chem optical property database

test: solvent given as SMILES; details: in CCO
Response field class: enum, chosen by comparing emission maximum against lowest: < 500 nm; middle: ≥ 500 nm and < 600 nm; highest: ≥ 600 nm

smiles=CC1=[N+]2C(=C(c3c4ccccc4c(-c4ccccc4)c4ccccc34)c3ccc(C)n3[B-]2(F)F)C=C1 class_label=middle
smiles=CC(C)[Si]1(C(C)C)c2cc(C#N)ccc2-c2ccc(N(C)C)cc21 class_label=lowest
smiles=CN(C)c1ccc(/C=C2\OC(=O)c3cc(N)ccc32)cc1 class_label=middle
smiles=Nc1cccc2c1-c1ccccc1C2=O class_label=highest
smiles=CCC1=C(C)C2=C(C)c3c(C)c(CC)c(C)n3[B-](F)(F)[N+]2=C1C class_label=middle
smiles=CC[N+](CC)=c1ccc2c(C(F)(F)F)c3c(oc-2c1)-c1ccc(N(C)C)cc1CC3 class_label=lowest
smiles=CCN(CC)c1ccc(/C=C/C2=[O+][B-](F)(F)Oc3c2c(=O)oc2cc(N(CC)CC)ccc32)cc1 class_label=highest
smiles=Nc1cc2nc3cc(Cl)c(Cl)cc3nc2cc1N class_label=middle
smiles=COc1cc2c(cc1F)c(=O)c1cc(F)c(OC)cc1n2-c1ccccc1 class_label=lowest
smiles=COCCOc1ccc(OCCOC)c(C=O)c1 class_label=lowest
smiles=O=C1c2ccccc2C2=Cc3ccc4ccccc4[n+]3[B-](F)(F)N12 class_label=lowest
smiles=O=C1C2=C(O[B-](F)(F)[n+]3c2ccc2ccccc23)c2ccc(N3CCOCC3)c3cccc1c23 class_label=middle

====

experiment: solvent given as SMILES; conditions: in ClC(Cl)Cl
OUTCOME MEASURE: emission maximum (nm)

smiles=CCN1C(=CC2=C([O-])C(=CC3=[N+](CC)c4ccccc4C3(C)C)C2=O)C(C)(C)c2ccccc21 numeric_result=645
smiles=C(#Cc1ccccc1)C(C#Cc1ccccc1)=Cc1ccc(C=C(C#Cc2ccccc2)C#Cc2ccccc2)s1 numeric_result=528
smiles=N#Cc1nc2c3ccc(-c4ccc(N(c5ccccc5)c5ccccc5)cc4)cc3c3cc(-c4ccc(N(c5ccccc5)c5ccccc5)cc4)ccc3c2nc1C#N numeric_result=721.14
smiles=CCCCc1cc(-c2cccc(COC)c2)oc1-c1cccc(-c2cc(CCCC)c(-c3cccc(-c4cc(CCCC)c(-c5cccc(-c6oc(-c7cccc(-c8oc(-c9cccc(-c%10oc(-c%11cccc(COC)c%11)cc%10CCCC)c9)cc8CCCC)c7)cc6CCCC)c5)o4)c3)o2)c1 numeric_result=374
smiles=c1ccc2sc(-c3ccc(-c4nnc(-c5ccc(-c6nnc(-c7ccc(-c8cc9ccccc9s8)s7)o6)cc5)o4)s3)cc2c1 numeric_result=399
smiles=N#Cc1nc(N(Cc2ccccc2)Cc2ccccc2)c(C#N)nc1N(Cc1ccccc1)Cc1ccccc1 numeric_result=588
smiles=Cc1cc(=O)oc2cc3c(cc12)c1c2ccccc2c2ccccc2c1c1c2ccccc2c2ccccc2c31 numeric_result=536
smiles=F[B-]1(F)n2c(cc(Br)c2Br)C(c2ccccc2)=C2C=C(Br)C(c3ccc[nH]3)=[N+]21 numeric_result=642
smiles=CCCCCCCCc1ccc(-c2c3cc(-c4cc(CCCCCCCC)c(-c5ccc(-c6sc(/C=C7\SC(=S)N(CC)C7=O)cc6CCCCCCCC)s5)s4)sc3c(-c3ccc(CCCCCCCC)s3)c3cc(-c4cc(CCCCCCCC)c(-c5ccc(-c6sc(/C=C7\SC(=S)N(CC)C7=O)cc6CCCCCCCC)s5)s4)sc23)s1 numeric_result=670
smiles=CCC1=C(C)C(=O)n2c1cc1c(C)c(CC)c(C)n1c2=O numeric_result=500
smiles=CCCCCCCCC1(CCCCCCCC)c2cc(-c3ccc([N+](=O)[O-])cc3)ccc2-c2ccc(-c3ccc([N+](=O)[O-])cc3)cc21 numeric_result=538
smiles=CCCCCCOc1ccc(N(c2ccc(OCCCCCC)cc2)c2ccc(-c3sc(-c4ccc(N(c5ccc(OCCCCCC)cc5)c5ccc(OCCCCCC)cc5)cc4)c4nc(-c5ccccc5)c(-c5ccccc5)nc34)cc2)cc1 numeric_result=777
smiles=COc1cccc2cc(-c3ccc([N+](=O)[O-])cc3)c(=N)oc12 numeric_result=380
smiles=Cc1nc2c(ccc3c2sc(/C=C/c2ccc(N(C)C)cc2)[n+]3C)s1 numeric_result=603
smiles=CCCCCCCCN1C(=O)c2ccc3c4c(-c5ccc6c7ccccc7n(-c7ccccc7)c6c5)cc5c6c(cc(-c7ccc8c9ccccc9n(-c9ccccc9)c8c7)c(c7ccc(c2c37)C1=O)c64)C(=O)N(CCCCCCCC)C5=O numeric_result=644
smiles=Nc1ccc2cc(-c3ccc(C(F)(F)F)cc3)oc(=O)c2c1 numeric_result=438
smiles=N#Cc1ccc(-c2cc(-c3ccc(N4CCCC4)cc3)nc(-c3ccccc3)n2)cc1 numeric_result=518

====

Measured emission maximum values are reported for all entries that follow.
assay: solvent given as SMILES; conditions: in ClCCl
OUTCOME MEASURE: emission maximum (nm)

molecule=CC(C)c1cccc(C(C)C)c1N1C(=O)c2cccc3c(Oc4ccc(C(C)(C)c5ccccc5)cc4)ccc(c23)C1=O numeric_result=435
molecule=CCC1=C(C)C2=C(C)c3c(C)c(CC)c(C)n3[B-](F)(F)[N+]2=C1C numeric_result=534
molecule=CCCC1=Cc2nc1ccc1[nH]c(cc1CCC)c1nc(c(NC(=O)CCCC(=O)O)cc3[nH]c2cc3CCC)C(CCC)=C1 numeric_result=680
molecule=c1ccc(C(=C(c2ccccc2)c2ccc(-c3ccc(-c4nc5c(-c6ccc(-c7ccc(C(=C(c8ccccc8)c8ccccc8)c8ccccc8)cc7)cc6)sc(-c6ccc(-c7ccc(C(=C(c8ccccc8)c8ccccc8)c8ccccc8)cc7)cc6)c5nc4-c4ccc(-c5ccc(C(=C(c6ccccc6)c6ccccc6)c6ccccc6)cc5)cc4)cc3)cc2)c2ccccc2)cc1 numeric_result=647
molecule=c1ccc2c(-c3cc4c(ccc5sc(-c6cccc7ccccc67)cc54)s3)cccc2c1 numeric_result=423
molecule=CCN(CC)c1ccc2cc(-c3nc4cc(C(=O)Nc5ccccc5)ccc4o3)c(=O)oc2c1 numeric_result=495
molecule=CN(C)c1ccc(C2=Nc3scc(-c4ccc(N(C)C)cc4)[n+]3[B-](F)(F)O2)cc1 numeric_result=590
molecule=CC(C)(C)c1ccc2c(c1)c1cc(C(C)(C)C)ccc1n2-c1cccc(C(=O)c2cccc(-n3c4ccc(C(C)(C)C)cc4c4cc(C(C)(C)C)ccc43)n2)n1 numeric_result=383.6
molecule=CCCCN(CCCC)c1ccc(C#Cc2cc(C#Cc3ccc(C#N)cc3)c(C#Cc3ccc(C#N)cc3)cc2C#Cc2ccc(N(CCCC)CCCC)cc2)cc1 numeric_result=563
molecule=COc1ccc(/C=C/c2nc(/C=C/c3ccc(N(C)C)cc3)cc(/C=C/c3ccc(N(C)C)cc3)n2)cc1 numeric_result=533
molecule="CCCCCCCCCCCCC(CCCCCCCCCC)Cn1c2cc(/C=C/C=C(C#N)C#N)c3cccc4c5cccc6c(/C=C/C=C(C#N)C#N)cc1c(c65)c2c34 (stereo not given)" numeric_result=697
molecule=CCOC(=O)c1c(-c2cc3cc(OC)ccc3oc2=O)nn(-c2cccc(Cl)c2)c1C(=O)OCC numeric_result=445
molecule="CC1CCC(=CS/C=C/c2ccc(/C=C/SC=C3CCC(C)CC3)cc2)CC1 (stereo not given)" numeric_result=427
molecule=CC(C)c1cc(C(C)C)c(B2c3cc(N4c5ccccc5C(C)(C)c5ccccc54)ccc3N(c3ccccc3)c3ccc(N4c5ccccc5C(C)(C)c5ccccc54)cc32)c(C(C)C)c1 numeric_result=494.56
molecule=CCCCCCCCCCCCCCCCCCOC(=O)/C=C/C1=CC2=C(c3c(C)cc(C)cc3C)c3cc(/C=C/C(=O)OCCCCCCCCCCCCCCCCCC)cn3[B-](F)(F)[N+]2=C1 numeric_result=606
molecule="COC(=O)C(Cc1ccc2oc(-c3ccc(Nc4ccccc4)cc3)nc2c1)NC(=O)OC(C)(C)C (stereo not given)" numeric_result=415.51
molecule="CCCCCC(=O)c1cccc2sc3c(c12)P(=O)(c1ccccc1)c1ccccc1-3 (stereo not given)" numeric_result=427
molecule=CCn1c2c(-c3ccc(-c4cccs4)s3)cc(C(C)(C)C)cc2c2cc(C(C)(C)C)cc(-c3ccc(-c4cccs4)s3)c21 numeric_result=440
molecule=CCOC(=O)c1c(-c2cc3ccc(OC)cc3oc2=O)nn(-c2cccc(C)c2)c1C(=O)OCC numeric_result=422
molecule=COc1ccc(N(c2ccc(OC)cc2)c2ccc3c(c2)C2(c4cc(N(c5ccc(OC)cc5)c5ccc(OC)cc5)ccc4C=C3)c3ccccc3-c3ccccc32)cc1 numeric_result=483
molecule=Cn1c(=O)cc(C(=O)c2ccccc2)c2sc(-c3ccc(C(F)(F)F)cc3)cc21 numeric_result=511
molecule=O=Cc1ccc(-c2ccc(O)c(-c3nc4ccccc4s3)c2)o1 numeric_result=553
molecule=CN(C)c1ccc2cc3c(cc2c1)OCCN=C3 numeric_result=532
molecule=CCCCCCCCCCCCOc1cc2cc(N(C)C)ccc2cc1C=C(C#N)C#N numeric_result=578
molecule=Cc1c(C(=O)c2c(F)cc(F)cc2F)c2ccc3cccc4c5cccc6ccc1c(c65)c2c34 numeric_result=499
